Entry source: the supplement of paper PMC4862054

Test system: HDQ-P1
procedure-details: normalised response (% of control), CellTox Green; higher = less cell death (100 = DMSO, 0 = benzethonium chloride kill control)
test-parameters: incubation time: 72 h
property-name: normalised response (%)

compound	target-desc	quantity-unit	endpoint-result
Nc1ncnc2c1c(COc1cccc(Cl)c1)nn2C1CCOCC1 (10000 nM)	HDQ-P1	%	109
CN1CCN(CCOc2cc(OC3CCOCC3)c3c(Nc4c(Cl)ccc5c4OCO5)ncnc3c2)CC1 [Saracatinib] (1000 nM)	HDQ-P1	%	86.8
Cn1cncc1[C@@](N)(c1ccc(Cl)cc1)c1ccc2c(c1)c(-c1cccc(Cl)c1)cc(=O)n2C [Tipifarnib] (10000 nM)	HDQ-P1	%	69.9
CC(C)c1c(C(=O)Nc2ccccc2)c(-c2ccccc2)c(-c2ccc(F)cc2)n1CC[C@@H](O)C[C@@H](O)CC(=O)O [Atorvastatin] (1000 nM)	HDQ-P1	%	103
Cn1c(=O)n(-c2ccc(C(C)(C)C#N)cc2)c2c3cc(-c4cnc5ccccc5c4)ccc3ncc21 [Dactolisib] (1000 nM)	HDQ-P1	%	115
O=C(O)CCCc1ccc(N(CCCl)CCCl)cc1 [Chlorambucil] (100 nM)	HDQ-P1	%	107
Cn1cncc1[C@@](N)(c1ccc(Cl)cc1)c1ccc2c(c1)c(-c1cccc(Cl)c1)cc(=O)n2C [Tipifarnib] (100 nM)	HDQ-P1	%	103
CN(C)C[C@@H]1CCn2cc(c3ccccc32)C2=C(C(=O)NC2=O)c2cn(c3ccccc23)CCO1 [Ruboxistaurin] (10000 nM)	HDQ-P1	%	26.2
Nc1nc(OCc2cc(Br)cs2)c2[nH]cnc2n1 [Lomeguatrib] (10000 nM)	HDQ-P1	%	104
C[C@]12CC[C@H](O)CC1=CC[C@@H]1[C@@H]2CC[C@]2(C)C(c3cccnc3)=CC[C@@H]12 [Abiraterone] (50 nM)	HDQ-P1	%	111
O=C1NC(=O)[C@@H](c2cn3c4c(cccc24)CCC3)[C@@H]1c1c[nH]c2ccccc12 [Tivantinib] (10 nM)	HDQ-P1	%	109
CC[C@]1(O)C[C@H]2CN(CCc3c([nH]c4ccccc34)[C@@](C(=O)OC)(c3cc4c(cc3OC)N(C=O)[C@H]3[C@@](O)(C(=O)OC)[C@H](OC(C)=O)[C@]5(CC)C=CCN6CC[C@]43[C@@H]65)C2)C1 [Vincristine] (1000 nM)	HDQ-P1	%	99.3
Cc1ccc(NC(=O)c2ccc(CN3CCN(C)CC3)cc2)cc1Nc1nccc(-c2cccnc2)n1 [Imatinib] (100 nM)	HDQ-P1	%	111
CNNCc1ccc(C(=O)NC(C)C)cc1 [Procarbazine] (1000 nM)	HDQ-P1	%	104
